Test target: KRAS-G12D (Homo sapiens, UniProt P01116, G12D)
Construct: endogenous in cells; host or cells: A-427 (ATCC), AGS, AsPc-1, Panc 04.03
Sequence (P01116 1-188 isoform P01116-2 G12D): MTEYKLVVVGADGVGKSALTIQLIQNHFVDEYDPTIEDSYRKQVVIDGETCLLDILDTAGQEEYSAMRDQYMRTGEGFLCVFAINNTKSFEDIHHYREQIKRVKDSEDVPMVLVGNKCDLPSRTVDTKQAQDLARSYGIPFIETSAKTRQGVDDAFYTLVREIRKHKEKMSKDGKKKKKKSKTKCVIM
Assay notes: KRAS-G12D degradation assay (Western Blot), A-427 cells
Type: cell-based
Condition description: A427 cells, 24 h; class symbols

[
  {
    "Smiles data": "C#Cc1c(F)ccc2cc(O)cc(-c3ncc4c(N5CC6CCC(C5)N6)nc(OCC5(CN6CCN(CCC7CCN(C(=O)c8ccc(Cl)c(N9CCC(=O)NC9=O)c8)CC7)CC6)CC5)nc4c3F)c12",
    "Test target": "KRAS-G12D (Homo sapiens, UniProt P01116, G12D)",
    "DC50": "≤ 50 nM"
  },
  {
    "Smiles data": "CCc1cccc2cc(O)cc(-c3ncc4c(N5CC6CCC(C5)N6)nc(OC[C@@H]5CCCN5CCCC5CCN(C(=O)c6ccc(Cl)c(N7CCC(=O)NC7=O)c6)CC5)nc4c3F)c12",
    "Test target": "KRAS-G12D (Homo sapiens, UniProt P01116, G12D)",
    "DC50": "1000 to 10000 nM"
  },
  {
    "Smiles data": "C#Cc1c(F)ccc2cc(O)cc(-c3ccc4c(N5CC6CCC(C5)N6)nc(OCC5(CN6CCN(CC7CCC8(CC7)CCN(C(=O)c7ccc(C)c(N9CCC(=O)NC9=O)c7)CC8)CC6)CC5)nc4c3F)c12",
    "Test target": "KRAS-G12D (Homo sapiens, UniProt P01116, G12D)",
    "DC50": "≤ 50 nM"
  }
]

###

Test target: KRAS-G12D (Homo sapiens, UniProt P01116, G12D)
Construct: endogenous in cells; host or cells: A-427 (ATCC), AGS, AsPc-1, Panc 04.03
Assay notes: KRAS-G12D degradation assay (Western Blot), A-427 cells
Format: cell-based
Condition description: A-427; A427 cells, 24 h; class symbols
Source text: The degradation effects of the compounds on KRAS-G12D were investigated on KRAS G12D mutant human lung cancer cell A-427 (ATCC), KRAS G12D mutant human gastric cancer cell AGS, KRAS G12D mutant human metastatic pancreatic cancer cell AsPc-1, and KRAS G12D mutant human pancreatic adenocarcinoma cell Panc 04.03. […]

[
  {
    "Smiles data": "CCc1cccc2cc(O)cc(-c3ncc4c(N5CC6CCC(C5)N6)nc(OC[C@@H]5CCCN5CCCC5CCN(C(=O)c6ccc(Cl)c(N7CCC(=O)NC7=O)c6)CC5)nc4c3F)c12",
    "Dmax": "30 to 50%"
  },
  {
    "Smiles data": "C#Cc1c(F)ccc2cc(O)cc(-c3ncc4c(N5CC6CCC(C5)N6)nc(OCC5(CN6CC7CCC(C6)N7CC6CCC7(CC6)CCN(C(=O)c6ccc(Cl)c(N8CCC(=O)NC8=O)c6)CC7)CC5)nc4c3F)c12",
    "Dmax": "80 to 100%"
  },
  {
    "Smiles data": "C#Cc1c(F)ccc2cc(O)cc(-c3ncc4c(N5CC6CCC(C5)N6)nc(OCC5(CN6CCN(CCCC7CCN(C(=O)c8ccc(Cl)c(N9CCC(=O)NC9=O)c8)CC7)CC6)CC5)nc4c3F)c12",
    "Dmax": "80 to 100%"
  },
  {
    "Smiles data": "C#Cc1c(F)ccc2cc(O)cc(-c3ncc4c(N5CC6CCC(C5)N6)nc(OCC5(CN6CCC(CCN7CCN(C(=O)c8ccc(Cl)c(N9CCC(=O)NC9=O)c8)CC7)CC6)CC5)nc4c3F)c12",
    "Dmax": "< 30%"
  },
  {
    "Smiles data": "C#Cc1c(F)ccc2cc(O)cc(-c3ncc4c(N5CC6CCC(C5)N6)nc(NCC5(CN6CCN(CC7CCC8(CC7)CCN(C(=O)c7ccc(Cl)c(N9CCC(=O)NC9=O)c7)CC8)CC6)CC5)nc4c3F)c12",
    "Dmax": "80 to 100%"
  },
  {
    "Smiles data": "C#Cc1c(F)ccc2cc(O)cc(-c3ncc4c(N5CC6CCC(C5)N6)nc(OCC5(CN6CCC(CCOCC7CCN(C(=O)c8ccc(Cl)c(N9CCC(=O)NC9=O)c8)CC7)CC6)CC5)nc4c3F)c12",
    "Dmax": "80 to 100%"
  },
  {
    "Smiles data": "CCc1c(F)ccc2cc(O)cc(-c3ncc4c(N5CC6CCC(C5)N6)nc(OCC5(CN6CCN(CC7CCC8(CC7)CCN(C(=O)c7ccc(OC)c(N9CCC(=O)NC9=O)c7)CC8)CC6)CC5)nc4c3F)c12",
    "Dmax": "80 to 100%"
  },
  {
    "Smiles data": "C#Cc1c(F)ccc2cc(O)cc(-c3ncc4c(N5CC6CCC(C5)N6)nc(OC[C@@H]5CCCN5CCC5CCC6(CC5)CCN(C(=O)c5ccc(Cl)c(N7CCC(=O)NC7=O)c5)CC6)nc4c3F)c12",
    "Dmax": "< 30%"
  },
  {
    "Smiles data": "C#Cc1c(F)ccc2cc(O)cc(-c3ncc4c(N5CC6CCC(C5)N6)nc(OCC5(CN6CC(CN7CCC8(CC7)CCN(C(=O)c7ccc(OC)c(N9CCC(=O)NC9=O)c7)CC8)C6)CC5)nc4c3F)c12",
    "Dmax": "30 to 50%"
  },
  {
    "Smiles data": "C#Cc1c(F)ccc2cc(O)cc(-c3ncc4c(N5CC6CCC(C5)N6)nc(OCC56CC(CN7CCN(CCC8CCC9(CC8)CCN(C(=O)c8ccc(Cl)c(N%10CCC(=O)NC%10=O)c8)CC9)CC7)(C5)C6)nc4c3F)c12",
    "Dmax": "50 to 80%"
  },
  {
    "Smiles data": "Cc1ccc(C(=O)N2CCC3(CCC(CN4CCN(CC5(COc6nc(N7CC8CCC(C7)N8)c7cnc(-c8cccc9cccc(Cl)c89)c(F)c7n6)CC5)CC4)CC3)CC2)cc1N1CCC(=O)NC1=O",
    "Dmax": "< 30%"
  }
]

###

Test system: KRAS G12D mutant human gastric cancer cell AGS
Assay notes: 3D cell proliferation inhibition assay, AGS
Type: cell-based
Condition description: 168 h, 7 days, CTG, class symbols
Catalogue of molecules with associated IC50
Observable: IC50

[
  {
    "Smiles data": "CCc1cccc2cc(O)cc(-c3ncc4c(N5CC6CCC(C5)N6)nc(OCC5(CN6CCN(CC7CCC8(CC7)CCN(C(=O)c7ccc(C)c(N9CCC(=O)NC9=O)c7)CC8)CC6)CC5)nc4c3F)c12",
    "Observable": "IC50",
    "Value measured": "≤ 50 nM"
  },
  {
    "Smiles data": "Cc1ccc(C(=O)N2CCC3(CCC(CN4CCN(CC5(COc6nc(N7CC8CCC(C7)N8)c7cnc(-c8cccc9cccc(Cl)c89)c(F)c7n6)CC5)CC4)CC3)CC2)cc1N1CCC(=O)NC1=O",
    "Observable": "IC50",
    "Value measured": "50 to 100 nM"
  },
  {
    "Smiles data": "CCc1cccc2cc(O)cc(-c3ncc4c(N5CC6CCC(C5)N6)nc(NCC5(CN6CCN(CC7CCC8(CC7)CCN(C(=O)c7ccc(Cl)c(N9CCC(=O)NC9=O)c7)CC8)CC6)CC5)nc4c3F)c12",
    "Observable": "IC50",
    "Value measured": "50 to 100 nM"
  },
  {
    "Smiles data": "C#Cc1c(F)ccc2cc(O)cc(-c3ncc4c(N5CC6CCC(C5)N6)nc(OCC5(CN6CCN(CC7CCC8(CC7)CCN(C(=O)c7ccc(Cl)c(N9CCC(=O)N(C)C9=O)c7)CC8)CC6)CC5)nc4c3F)c12",
    "Observable": "IC50",
    "Value measured": "50 to 100 nM"
  },
  {
    "Smiles data": "C#Cc1c(F)ccc2cc(O)cc(-c3ncc4c(N5CC6CCC(C5)N6)nc(OCC5(CN6CCN(CC7CCC8(CC7)CCN(C(=O)c7ccc(OC(F)(F)F)c(N9CCC(=O)NC9=O)c7)CC8)CC6)CC5)nc4c3F)c12",
    "Observable": "IC50",
    "Value measured": "≤ 50 nM"
  },
  {
    "Smiles data": "C#Cc1c(F)ccc2cc(O)cc(-c3ncc4c(N5CC6CCC(C5)N6)nc(OCC56CC(CN7CCN(CC8CCC9(CC8)CCN(C(=O)c8ccc(Cl)c(N%10CCC(=O)NC%10=O)c8)CC9)CC7)(C5)C6)nc4c3F)c12",
    "Observable": "IC50",
    "Value measured": "≤ 50 nM"
  },
  {
    "Smiles data": "C#Cc1c(F)ccc2cc(O)cc(-c3ncc4c(N5CC6CCC(C5)N6)nc(OCC5(CN6CCN(CCC7CCN(C(=O)c8ccc(Cl)c(N9CCC(=O)NC9=O)c8)CC7)CC6)CC5)nc4c3F)c12",
    "Observable": "IC50",
    "Value measured": "≤ 50 nM"
  },
  {
    "Smiles data": "C#Cc1c(F)ccc2cc(O)cc(-c3ncc4c(N5CC6CCC(C5)N6)nc(OCCN5CCN(CCC6CCC7(CC6)CCN(C(=O)c6ccc(Cl)c(N8CCC(=O)NC8=O)c6)CC7)CC5)nc4c3F)c12",
    "Observable": "IC50",
    "Value measured": "≤ 50 nM"
  },
  {
    "Smiles data": "C#Cc1c(F)ccc2cc(O)cc(-c3ncc4c(N5CC6CCC(C5)N6)nc(OCC5(CN6CCC(CCOCC7CCN(C(=O)c8ccc(Cl)c(N9CCC(=O)NC9=O)c8)CC7)CC6)CC5)nc4c3F)c12",
    "Observable": "IC50",
    "Value measured": "≤ 50 nM"
  }
]

The reported measurements were obtained from patent US20260166159A1.
